Target: 9J10/14-3-3ε interaction (Homo sapiens, UniProt P62258)
Construct: A synthetic gene construct encoding full length human 14-3-3ε; made in house; host or cells: E. coli BL21(DE3)
Sequence (P62258 1-255): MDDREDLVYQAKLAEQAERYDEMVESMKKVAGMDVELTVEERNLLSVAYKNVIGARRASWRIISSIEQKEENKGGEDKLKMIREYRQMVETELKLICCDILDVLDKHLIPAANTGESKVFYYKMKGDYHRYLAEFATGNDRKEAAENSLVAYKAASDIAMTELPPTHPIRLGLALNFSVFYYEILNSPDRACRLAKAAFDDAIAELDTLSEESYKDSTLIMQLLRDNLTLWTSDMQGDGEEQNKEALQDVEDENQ
Test: FP competition, TAMRA-p9J10Min binding to 14-3-3ε
Conditions: 10nM TAMRA-p9J10Min, His-14-3-3ε 1.5 μM, top concentration 200 μM, 0.4% DMSO; mean of three independent experiments; read-out: IC50, FP
quantity-kind: pIC50
Here pIC50 is given on a logarithmic scale as minus log10 of the concentration in mol/L.

Qu. Quick check: pIC50 of Cc1c(C(=O)O)sc2[nH]c(=S)[nH]c(=O)c12 ?
Ans. 3.95

Entry source: paper PMC8610377
